# Test system: NCI-H522 lung
# test details: NCI-60 one-dose screen, 48 h
# condition parameters: 10 µM unless noted
This is part of a sample that, as a whole, favours compounds with a hit. Of some 83,000 tested, about 20% had one in any assay. Calls of active or inactive are those of the source. How the source made its calls: active means growth percent below 10; inactive means the rest.
The reply should name one outcome from active, inactive

Here's what some known entries look like.
INSERT INTO measurements (compound, class_name) VALUES
  ('CCN(CC)c1ccc(/C=C\c2cc(C)c3cc(C)ccc3n2)cc1', 'inactive'),
  ('NC(=O)c1ccc(NC(=O)c2oc3ccccc3c2-c2cnn(-c3ccccc3)c2)cc1', 'inactive'),
  ('C=C1C(=O)O[C@H]2[C@H]1CC/C(COC(=O)NCc1ccc(Cn3c(=O)sn(-c4ccc(OC)cc4)c3=O)cc1)=C\CC[C@@]1(C)O[C@@H]21', 'active'),
  ('CCN(C(=O)N1CCN(c2cc3c(cc2F)c(=O)c(C(=O)O)cn3C2CC2)CC1)c1nc(-c2ccc(C)cc2)cs1', 'active'),
  ('CCCCCCCCCCCCCCCCOC(=O)c1c(C)[nH]c(/C=C2\N=C(c3ccc[nH]3)C=C2OC)c1C', 'inactive'),
  ('CCSC1=CC(=O)c2ccccc2C1=O', 'active'),
  ('O=C(CCl)Nc1ccc2c(Nc3cc(O)ccc3Cl)ncnc2c1', 'active'),
  ('O=C(Cn1cc(CN2C(=O)c3ccccc3S2(=O)=O)nn1)Nc1cccc(Cl)c1', 'inactive'),
  ('O=C1Nc2ccccc2C2c3cccn3-c3ccccc3N12 (stereo not given)', 'active'),
  ('CNC(=O)c1c(NC(=O)c2ccc(C(C)(C)C)cc2)sc2c(CN(C)C)c(O)ccc12', 'inactive');

Task: Could you please tell me the result logged for "Cc1ccc(N=Nc2c(N)nn(-c3ccccc3)c2N)cc1" in this assay?
Result: active

Task: Fill in: this test's call for "N#CCC1=NC(c2cccs2)=Nc2ccccc2S1" is ___
Result: inactive

Task: Tell me the recorded outcome of this test for "C/C(=C(/c1ccc(Cl)cc1)c1ccc(OCCCN(C)C)cc1)c1ccc(Cl)cc1" .
Result: inactive

Task: Outcome logged for "O=C(Nc1cccnc1Nc1ccc(Cl)cc1)c1cn(Cc2ccc(F)cc2)nn1" in this assay:
Result: inactive

Task: I would be grateful if you could indicate the recorded call for "COc1ccc(-c2cc(-c3cc(OC)c(OC)c(OC)c3)c(C#N)c(=O)n2CCCCCC(=O)NO)cc1" .
Result: inactive

Task: Assay result, entry "O=C(N/N=C/c1ccc([N+](=O)[O-])cc1)c1ccc2nc(-c3ccc(Cl)cc3)[nH]c2c1" — outcome?
Result: inactive

Task: What call does the record list for NC(CSC(c1ccccc1)(c1ccccc1)c1ccc2c(c1)OCO2)C(=O)O (stereo not given) ?
Result: active

Task: Per the records of this test, what outcome belongs to "Fc1ccc2c(c1)c(-c1nc(-c3c[nH]c4ncccc34)cs1)cn2CCCN1CCOCC1" ?
Result: inactive

Task: // outcome(item) with item = "COc1cc(-c2nc3occn3c2-c2ccnc(NCCCNS(=O)(=O)c3ccccc3)n2)ccc1F"
Result: inactive

Task: Assay outcome for "COc1ccc(Nc2ncccc2NC(=O)c2cn(Cc3cccc(Oc4ccccc4)c3)nn2)cc1OC" : what was it?
Result: inactive

Value source: PubChem BioAssay (NCI)
